study.target: 5-HT1A receptor (Sus scrofa)
Construct: Swine hippocampus was homogenized in a 50 mM Tris-Hcl buffer; from tissue; host or cells: swine hippocampus, membrane fraction
Sequence (A0A4X1UTF5 1-422): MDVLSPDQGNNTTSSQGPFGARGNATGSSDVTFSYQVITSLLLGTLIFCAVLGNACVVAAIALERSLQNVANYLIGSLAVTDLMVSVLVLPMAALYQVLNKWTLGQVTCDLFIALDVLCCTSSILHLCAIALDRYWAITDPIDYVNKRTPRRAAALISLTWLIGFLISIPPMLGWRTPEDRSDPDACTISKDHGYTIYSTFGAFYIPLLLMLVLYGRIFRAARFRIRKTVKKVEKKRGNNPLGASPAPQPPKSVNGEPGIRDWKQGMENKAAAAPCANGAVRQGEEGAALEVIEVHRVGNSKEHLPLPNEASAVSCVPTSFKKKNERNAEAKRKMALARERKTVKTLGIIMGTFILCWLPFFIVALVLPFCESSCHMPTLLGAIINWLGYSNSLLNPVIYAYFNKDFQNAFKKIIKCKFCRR
assay.protocol: Affinity for serotonin 1A receptor: inhibition of [3H]MPPF binding in swine hippocampal membrane fraction
test.conditions: low affinity IC50 divided by high affinity IC50; 1 or smaller = no intrinsic activity, 2 or greater = intrinsic activity
reported.property: L/H ratio

// worked examples, L/H ratio included
Look up L/H ratio: COc1cc2cccnc2cc1CCN1CCC(n2ccc3ccc(C(N)=O)cc32)CC1 [Compound 51]
0.9

Look up L/H ratio: CON=C1CCc2c(CCN3CCC(n4ccc5ccc(C(N)=O)cc54)CC3)c(OC)cc(OC)c21 [Compound 11]
0.4

Look up L/H ratio: COc1ccc2ccccc2c1CCN1CCC(n2ccc3ccc(C(N)=O)cc32)CC1 [Compound 44]
1.2

Look up L/H ratio: COc1cc2c(cc1CCN1CCC(n3ccc4ccc(C(N)=O)cc43)CC1)C(=O)N(C)CCO2 [Compound 9]
0.8

Look up L/H ratio: COc1ccc2sc(C)nc2c1CCN1CCC(n2ccc3ccc(C(N)=O)cc32)CC1 [Compound 27]
1.1

a = CNC(=O)c1ccc2ccn(C3CCN(CCc4cc5c(cc4OC)CCC(=O)N5C)CC3)c2c1 [Compound 58]
b = COc1ccc2c(c1CCN1CCC(n3ccc4ccc(C(N)=O)cc43)CC1)CC(C)(C)C2=O [Compound 14]
// which entry reports the smaller L/H ratio, a or b ? API: response body contains the label of the selected item.
b
(b: 0.7, a: 1.2)

====

study.target: 5-HT1A receptor (Sus scrofa)
Construct: Swine hippocampus was homogenized in a 50 mM Tris-Hcl buffer; from tissue; host or cells: swine hippocampus, membrane fraction
assay.protocol: Affinity for serotonin 1A receptor: inhibition of [3H]MPPF binding in swine hippocampal membrane fraction
test.conditions: low affinity IC50 divided by high affinity IC50; 1 or smaller = no intrinsic activity, 2 or greater = intrinsic activity
reported.property: L/H ratio

// worked examples, L/H ratio included
Look up L/H ratio: COc1cc2c(cc1CCN1CCC(n3ccc4ccc(C(N)=O)cc43)CC1)NC(=O)CC2 [Compound 56]
0.5

Look up L/H ratio: CNC(=O)c1ccc2ccn(C3CCN(CCc4cc5nc(C)oc5cc4OC)CC3)c2c1 [Compound 16]
0.9

a = COc1ccc2c(c1CCN1CCC(n3ccc4ccc(C(N)=O)cc43)CC1)OCCC2O (centres unmarked) [Compound 46]
b = COc1ccc2c(c1CCN1CCC(n3ccc4ccc(C(N)=O)cc43)CC1)OC1(CCOCC1)CC2=O [Compound 43]
Parameter check: reported L/H ratio is higher for which label, a or b ? API: response body contains the label of the selected item.
a
(a: 1.4, b: 0.7)
